test: in vivo; settings: dog, po, 6 mg/kg, AUClast, dogs, Fed, paclitaxel 6 mg/kg with Compound A 3 mg/kg, single oral dose
Quantity kind: AUC(0-t) (ng·h/mL)

| Molecule | Quantity kind | Measured number |
| --- | --- | --- |
| CC(=O)O[C@H]1C(=O)[C@@]2(C)[C@H]([C@H](OC(=O)c3ccccc3)[C@]3(O)C[C@H](OC(=O)[C@H](O)[C@@H](NC(=O)c4ccccc4)c4ccccc4)C(C)=C1C3(C)C)[C@]1(OC(C)=O)CO[C@@H]1C[C@@H]2O | AUC(0-t) | 849 |

----------
test: clinical; settings: human, in vivo, po, 60 mg/m2
Quantity kind: AUC(0-inf)

| Compound | Result |
| --- | --- |
| CC(=O)O[C@H]1C(=O)[C@@]2(C)[C@H]([C@H](OC(=O)c3ccccc3)[C@]3(O)C[C@H](OC(=O)[C@H](O)[C@@H](NC(=O)c4ccccc4)c4ccccc4)C(C)=C1C3(C)C)[C@]1(OC(C)=O)CO[C@@H]1C[C@@H]2O [Paclitaxel] | 727 ng·h/mL |
